These measurements were taken from ChEMBL document CHEMBL3988442.

Percent Effect for assorted compounds
Species: Homo sapiens
testDetails: To identify inhibition of the IFN signalling (Jak-Stat) pathway via expression of an eGFP reporter gene under the control of an IFN-stimulated response element (ISRE) containing MxA promoter.
Type: functional
Design: scale not given: direction of the effect not stated beside the values
conditions: 30 µM

| compound | Percent Effect (%) |
| --- | --- |
| CS(=O)(=O)N1Cc2nccn2CC(Cn2ncccc2=O)C1 (configuration not stated) | 0.368 |
| Cn1ccc(C(=O)N2CCC(Cc3cccc4cccnc34)C2)n1 (configuration not stated) | 16.3 |
| CCCNC(=O)CNc1ccc(C(=O)N2CCCCC2C)cc1C (configuration not stated) | 35.5 |
| CC(c1nc(C(C)(C)C)no1)N1CCN(CC(=O)N2CCOCC2)CC1 (configuration not stated) | 0.488 |
| COc1ncccc1C(=O)Nc1nc2c(s1)CN(S(=O)(=O)C1CC1)CC2 | 21.4 |
| CCc1cc(N[C@H]2CC[C@H](O)CC2)n2nc(C)c(C)c2n1 | -20.9 |
| CN(C(=O)Cn1nc(-c2ccc(F)cc2)ccc1=O)C1CCS(=O)(=O)C1 (configuration not stated) | -4.86 |
| CC(C)NS(=O)(=O)c1cc(C(=O)O)cc(-c2ccccc2CN(C)C)c1 | 1.46 |
| NC(=O)C1CCN(CCc2ccc(NC(=O)C3CCC3)cc2)CC1 | 6.62 |
| CCCOCC(=O)NC1CCc2nc(C)cn2C1 (configuration not stated) | 0.806 |
| CCc1nnc(CN2CCN(C(=O)c3cc4ccccc4[nH]3)CC2)o1 | -20 |
| COc1cccc(C2CC(=O)Nc3nc(N4CCOCC4)sc32)c1OC (configuration not stated) | -7.88 |
| CC(C#N)CSc1ccccc1NCC(=O)Nc1ccc(F)cc1 (configuration not stated) | 3.15 |
| CCOc1ccccc1C(CC(=O)Nc1nc(C)cs1)NC(C)=O (configuration not stated) | 10.1 |
| O=C(c1cccnc1-n1cccn1)N1CCN(CC2CC2)CC1 | -3.39 |
| Cc1ccc(C(C)NC(=O)Cc2c(C)nc3c(c2C)c(=O)[nH]n3C)o1 (configuration not stated) | 1.96 |
| Cc1cccc(-n2cc(C(=O)N3CCn4c(C)nnc4C3)nn2)c1 | 21.1 |
| CS(=O)(=O)NC[C@]12COC[C@H]1CN(CC1CCCC1)C2 | 0.262 |
| Cn1nccc1CNC(=O)Nc1cc(C(F)(F)F)c[nH]c1=O | 0.842 |
| COc1ccc(CN2CCCC2Cn2nc(C)nc2C)cc1F (configuration not stated) | 3.7 |
| CCSCCNC(=O)C(c1cccc(F)c1)N(C)C (configuration not stated) | 20.7 |
| COCCN1CCC(CNC(=O)C2(c3cc(C)cc(C)c3)CCC2)C1 (configuration not stated) | -6.37 |
| CC(=O)N1CCN(Cc2nnc(C(C)(C)C)o2)CC1 | 7.35 |
| O=C(COc1coc(CN2CCCC2)cc1=O)NCc1ccccc1Cl | -13.6 |
| CNC(=O)CSc1cnn(CC(=O)Nc2cccc(Cl)c2C)c(=O)c1Cl | 9.06 |
| COc1ccc(Cl)cc1NCC(=O)NCCc1ccccn1 | 20.4 |
| COCCc1noc(CN2CCN(CC(O)c3ccccc3)CC2)n1 (configuration not stated) | 12 |
| CC(C)Oc1ncc(C(=O)N2CCC(NC(=O)C3CC3)CC2)cc1Cl | 5.13 |
| Cc1cc(C(=O)N2C[C@@H]3COC[C@]3(c3nnc(C4CC4)o3)C2)on1 | -5.46 |
| CNc1cccc(C2CCCN(C(=O)c3ccncc3)C2)n1 (configuration not stated) | -2.26 |
| CN(C)C(=O)Cc1nc(CN2CCOC(Cn3cccn3)C2)cs1 (configuration not stated) | -2.04 |
| O=S(=O)(c1cccs1)N1CCCn2nnc(CN3CCCCC3)c2C1 | -33.6 |
| CN1CCc2c(C#N)c(NCCCN3CCOCC3)n3cnnc3c2C1 | -9.43 |
| CCC(CC)C(CNC(=O)Nc1ccc(C)cc1)N1CCOCC1 (configuration not stated) | 5.24 |
| O=C(NCc1cnc2n1CCN(CC1CC1)CC2)C1CCC1 | -8.45 |
| O=C(NCCOc1ccc2c(c1)OCO2)C1CC(=O)N(CC2CC2)C1 (configuration not stated) | -20.7 |
| CNC(=O)Cc1ccc(NC(=O)NC(C)C(C)C)cc1 (configuration not stated) | -8.18 |
| Cc1cnn(CCNCc2ccc(OCC(N)=O)cc2)c1 | -9.67 |
| CC1CCN(Cc2cnc(S(=O)(=O)CC3CC3)n2CC2CCCO2)CC1 (configuration not stated) | 4.06 |
| Cc1nc(CNC(=O)Cn2nc(-c3ccc(F)cc3)oc2=O)cs1 | 8.37 |
| CCn1nc(C)c2ncnc(NCC(=O)N3CCOCC3)c21 | 30.3 |
| CCOCCC(=O)N1CCCN(Cc2csc(CC)n2)CC1 | 7.51 |
| CCNC(=O)[C@@H]1C[C@H](NC(=O)c2cncnc2C)CN1CCCSC | -11.3 |
| O=C(NCC1CCN(Cc2ccsc2)CC1)NC1CC1 | 10.3 |
| CCc1cnc2c(c1Nc1ccncc1)c(=O)n(C)c(=O)n2C | 35.5 |
| CCOc1nc2cccnc2n(CC(=O)NCCOC)c1=O | 3.76 |
| Cn1cc(C[C@H]2[C@@H](O)CCN2C(=O)C2CC=CC2)cn1 | 26.4 |
